Across several studies, molecules have been characterized by their pKi on Somatostatin receptor type 3 (Homo sapiens, UniProt P32745); a selection follows.
Sequence (P32745 whole entry): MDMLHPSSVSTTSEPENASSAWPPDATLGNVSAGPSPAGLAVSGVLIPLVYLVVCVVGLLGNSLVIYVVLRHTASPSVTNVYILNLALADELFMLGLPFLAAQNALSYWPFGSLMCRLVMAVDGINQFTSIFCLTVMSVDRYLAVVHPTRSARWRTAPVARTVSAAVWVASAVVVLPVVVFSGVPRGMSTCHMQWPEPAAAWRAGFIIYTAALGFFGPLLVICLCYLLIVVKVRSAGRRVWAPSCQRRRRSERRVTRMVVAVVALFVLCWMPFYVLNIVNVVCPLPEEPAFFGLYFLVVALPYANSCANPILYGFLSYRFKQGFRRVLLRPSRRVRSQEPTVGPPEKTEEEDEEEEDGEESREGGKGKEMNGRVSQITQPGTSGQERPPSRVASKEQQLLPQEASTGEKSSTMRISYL
Recall that pKi is obtained by taking minus log10 of the concentration measured in molar.

Here is how some molecules turned out for pKi.
The recorded pKi with Somatostatin receptor type 3 (Homo sapiens, UniProt P32745) for NC(=N[C@H](Cc1c[nH]c2ccccc12)c1nc(-c2ccccc2)c[nH]1)c1ccc(F)cc1F was 6.70

The recorded pKi with Somatostatin receptor type 3 (Homo sapiens, UniProt P32745) for NCCCCNC(=O)C(Cc1c[nH]c2ccccc12)NC(=O)N1CCC2(C=Cc3ccccc32)CC1 (centres undefined) was 5.25

Okay, next one:
The recorded pKi with Somatostatin receptor type 3 (Homo sapiens, UniProt P32745) for CC(C)[C@@H]1NC(=O)[C@H](CCCCN)NC(=O)[C@@H](Cc2c[nH]c3ccccc23)NC(=O)[C@H](Cc2cccnc2)NC(=O)[C@H](NC(=O)[C@@H](N)Cc2ccc(Br)cc2)CSSC[C@@H](C(=O)N[C@@H](Cc2ccc(Br)cc2)C(N)=O)NC1=O was 7.24
